- Test system: SK-MEL-5 melanoma
- method: NCI-60 one-dose screen, 48 h (100 = growth as untreated, 0 = no growth, -100 = all killed)
- appliedConditions: 10 µM unless noted
The panel holds about 83,000 compounds, 20% with a hit somewhere; the sample as a whole holds those more often.
valueKind: growth (%)

compound	valueKind	scaleUnit	quantitativeResult
CCC1=C[C@@H]2CN(C1)Cc1c([nH]c3ccccc13)[C@@](C(=O)OC)(c1cc3c(cc1OC)N(C=O)[C@H]1[C@@](O)(C(=O)OC)[C@H](OC(C)=O)[C@]4(CC)[C@@H]5C[C@@H]5CN5CC[C@]31[C@@H]54)C2	growth	%	-26.9
O=P([O-])(O)OP(=O)([O-])O.[NH-][C@H]1CCCC[C@@H]1[NH-].[OH-].[OH-].[Pt+4]	growth	%	106
CCCCOc1nc2c(C)cccc2cc1C1CNC(=O)c2ccccc2N1 (stereo unspecified)	growth	%	43.4
O=S(=O)(O)CCl	growth	%	103
CCOC(=O)c1ccccc1NC(c1ccccc1)c1ccc2cccnc2c1O (stereo unspecified)	growth	%	4.23
COc1ccccc1CNCCCN1C(=O)c2ccc3c4c(ccc(c24)C1=O)C(=O)N(CCCNCCCCNCCCCN)C3=O	growth	%	-85
COc1cc(/C=C\c2cc(OC)c(OC)c(OC)c2)cc(N/C=C\C(=O)c2c[nH]c3ccccc23)c1OC	growth	%	54.2
COc1cc(C(=O)N2CCN(C(=O)c3ccco3)CC2)c(N)cc1OCc1ccccc1	growth	%	94.9
CNC(=O)Cc1nc(-c2cccc(NS(=O)(=O)c3c(F)cccc3F)c2F)c(-c2ccnc(Nc3ccccc3)n2)s1	growth	%	63.2
Cc1cc(Nc2nc(-c3ccncc3)nc3ccccc23)n[nH]1	growth	%	89.1
COc1cc(C2C=C(C)N=C3SC=C(C)N32)cc(OC)c1OC (stereo unspecified)	growth	%	-97.5
COc1cc(NC(=O)CCl)ccc(=O)c1	growth	%	75
Cc1ccc(OCCn2c(C)nn(-c3ccc(Cl)cc3)c2=O)cc1	growth	%	109
Clc1ccc2c(c1)NC1(CCSc3ccccc31)n1nccc1-2 (stereo unspecified)	growth	%	99.4
COc1cc(-c2cc(/C=C3\CCCCC3=O)[nH]n2)cc(OC)c1OC	growth	%	92.8
C[N+](C)(C)c1ccc(CC2c3ccccc3-c3ccccc32)cc1	growth	%	77.1
CCOc1ccc(/C=C/C=N/NC(N)=S)cc1	growth	%	96
O=Nc1c(-c2c(O)[nH]c3ccc([N+](=O)[O-])cc23)[nH]c2ccc(O)cc12	growth	%	-40.9
COc1cc(C2C=C(C)N=C3SC=CN32)cc(OC)c1OC (stereo unspecified)	growth	%	106
COc1cc(/C=C2\C=C(c3ccc(F)cc3)N(Cc3ccccc3)C2=O)cc(OC)c1OC	growth	%	36.1
O=C1OC(c2ccccc2)=N/C1=C\c1ccc([N+](=O)[O-])cc1	growth	%	99.2
COc1ccc(/C=C2\C(=O)N(C(=O)c3csc(NC(C)=O)n3)N=C2C)cc1	growth	%	107
CCN1C(=O)/C(=c2\sc3n(c2=O)C2C(NN=3)N(CC)C(=S)N2CC)c2ccccc21 (stereo unspecified)	growth	%	103
COc1cc2oc(-c3cccc(NC(=O)Nc4ccc5c(c4)OCO5)c3)cc(=O)c2c(OC)c1OC	growth	%	45.6
COc1cc(C2C3=C(COC3=O)Nc3c2ccc2c3CCCC2)cc2c1OCO2 (stereo unspecified)	growth	%	-18.8
CC1CCN(C(=O)CSc2nc3sc4c(c3c(=O)[nH]2)CCCC4)CC1	growth	%	91.8
COc1ccc(C2CC(=O)Nc3c2c(C)nn3-c2nc3ccccc3[nH]2)cc1OC (stereo unspecified)	growth	%	71.2
C#CCN1C(=O)/C(=c2\sc3n(c2=O)C2C(NN=3)N(CC)C(=O)N2CC)c2ccccc21 (stereo unspecified)	growth	%	12.4
CCCCNc1nnc(-c2cc(-c3cc4ccccc4o3)nn2-c2ccccc2)o1	growth	%	71.9
Cc1ccc2nc(-c3c(CCCO)noc3N)[nH]c(=O)c2c1	growth	%	99.6
O=S(=O)(NCCCNc1nccc(-c2c(-c3ccccc3)nc3sccn23)n1)c1ccc(F)cc1	growth	%	14.3
c1ccn2nnnc2c1	growth	%	103
CCCC1OC(c2ccc(C(C)C)cc2)OCC1CC (stereo unspecified)	growth	%	104
NC(=O)c1c(NC(=O)c2ccc3c(c2)OCO3)sc2c1CCC(=O)C2	growth	%	-94.2
CC(C)C(C(=O)CCN(C)C)c1ccc(Cl)cc1 (stereo unspecified)	growth	%	102
CCC1CCc2nc3sc(C(=O)Nc4ccccc4C)c(N)c3cc2C1 (stereo unspecified)	growth	%	26.6
Cc1sc2nc(CSc3nnc(-c4ccco4)o3)[nH]c(=O)c2c1C	growth	%	97.5
O=C(O)C(Cc1ccccc1)N1C(=O)/C(=C/C(Cl)=C/c2ccc([N+](=O)[O-])cc2)SC1=S (stereo unspecified)	growth	%	2.03
C=CCn1c(C)nc2ccc(Nc3nc(Nc4ccc(F)cc4)nc4ccccc34)cc21	growth	%	33.3
COc1cccc(NC(=O)Cn2cc3c(=O)oc4ccccc4c3n2)c1	growth	%	100
COc1ccc(/C=c2\sc3n(c2=O)C2C(NN=3)N(C)C(=O)N2C)cc1 (stereo unspecified)	growth	%	6.02

----------
- System: BT-549 breast
- method: NCI-60 one-dose screen, 48 h
- appliedConditions: 10 µM unless noted
About 83,000 compounds went through this panel and 20% of them were active in at least one assay; those are over-represented in the sample as a whole. Activity calls are given as the source filed them. The calls were made as follows: active = growth percent below 10; inactive = the rest.
Outcome codes: active, inactive

> print(dat)
                                    compound     measuredon  classassignment
 1  COc1cc(NCCCN=C(N)NC(N)=NC(C)C)c2ncccc2c1  BT-549 breast         inactive
 2  CC/C=C\C[C@H](O)C/C=C1/C(=O)C(Cl)=C[C@@H]1C/C=C\CCCC(=O)O  BT-549 breast         inactive
 3  CC(C)(C)OC(=O)N1C/C(=C\c2cccs2)C(=O)/C(=C/c2cccs2)C1  BT-549 breast         inactive
 4  COc1cc2nc(N3CCC[C@@H](NC4=CC(=O)c5ccccc5C4=O)C3)nc(N)c2cc1OC  BT-549 breast         inactive
 5  COc1cc(-n2nc(C(=O)Nc3ccc(C(=O)O)cc3)nc2-c2ccccc2)cc(OC)c1OC  BT-549 breast         inactive
 6       C/C(=N\NC(=O)CC#N)c1cc2cc(Cl)ccc2o1  BT-549 breast         inactive
 7  Cc1cc(Nc2nc(C(=O)Nc3ccccc3)nc3ccccc23)n[nH]1  BT-549 breast         inactive
 8  Cc1ccc2c(c1)ncn2-c1ncnc2c1CC(C)c1ccccc1N2C (stereo unspecified)  BT-549 breast           active
 9  CN1C(=O)[C@H]2c3c1cccc3[C@@]13NC(=O)O[C@H]1[C@H](CCC3(C)C)C2(C)C  BT-549 breast         inactive
10              CCSc1nnc(Nc2ccc(C(C)C)cc2)s1  BT-549 breast         inactive
11  COc1ccccc1CNCCCN1C(=O)c2ccc3c4c(ccc(c24)C1=O)C(=O)N(CCCNCCCCNCCCCN)C3=O  BT-549 breast         inactive
12  CCN1C(=O)N(CC)C2Nn3c(s/c(=C4\C(=O)N(C5CCCC5)c5ccccc54)c3=O)=NC21 (stereo unspecified)  BT-549 breast         inactive
13          Nc1ccc(S(=O)(=O)c2ccc(Cl)cc2)cc1  BT-549 breast         inactive
14  C=CCN=C1NC(=O)/C(=C/c2cc(C(C)(C)C)c(O)c(C(C)(C)C)c2)S1  BT-549 breast         inactive
15  COc1ccc2c(c1)C=CC(C#N)N2C(=O)c1ccccc1 (stereo unspecified)  BT-549 breast           active
16  CC(C)C[C@H](NC(=O)[C@@H](Cc1ccccc1)n1ccc(Nc2ccccc2)cc1=O)B(O)O  BT-549 breast           active
17  Cc1cc(NC(=O)COC(=O)c2sc3cc(F)ccc3c2Cl)no1  BT-549 breast         inactive
18  CCCCCCc1nc2c(c(C)nn2-c2ccccc2)c2c1CCCCC2  BT-549 breast         inactive
19  CC(CCc1ccccc1)NC(=O)c1n[nH]c(=O)c2ccccc12 (stereo unspecified)  BT-549 breast         inactive
20  CC(Cc1nnc(SCC(=O)Nc2ccc(I)cc2)n1N)c1ccccc1 (stereo unspecified)  BT-549 breast         inactive
21  CCN1C(=S)N(CC)C2Nn3c(s/c(=C4\C(=O)N(C)c5ccccc54)c3=O)=NC21 (stereo unspecified)  BT-549 breast         inactive
22  COc1ccc(S(=O)(=O)N2CCN(c3cc4c(cc3F)c(=O)c(C(=O)O)cn4C3CC3)CC2)c(OC)c1  BT-549 breast         inactive
23  CCN(Cc1ccc(CN(CC)C(=O)C(Br)Br)cc1)C(=O)C(Br)Br  BT-549 breast         inactive
24  O=Nc1c(-c2c(O)[nH]c3ccc([N+](=O)[O-])cc23)[nH]c2ccc(O)cc12  BT-549 breast           active
25  CCCCCCCCCN1C(=O)/C(=c2\sc3n(c2=O)C2C(NN=3)N(CC)C(=O)N2CC)c2ccccc21 (stereo unspecified)  BT-549 breast         inactive
26  CCn1cc(C(=O)O)c(=O)c2cc(F)c(N3CCN(S(=O)(=O)c4c(C)cc(C)cc4C)CC3)cc21  BT-549 breast         inactive
27  O=C(Nc1cccc(Cl)c1)c1cc([N+](=O)[O-])ccc1O  BT-549 breast         inactive
28  O=C1OC(c2ccccc2)=N/C1=C\c1ccc([N+](=O)[O-])cc1  BT-549 breast         inactive
29  O=C(/C=C/CN1CCCCC1)Nc1cc2c(Nc3ccc(F)c(Cl)c3F)ncnc2cc1OCCOC(F)F  BT-549 breast         inactive
30                  CN(C)c1nc(N)c(N=O)c(N)n1  BT-549 breast         inactive
31                     NC(=O)c1ccc2c(c1)OCO2  BT-549 breast         inactive
32  O=C(Nc1ccc(Cl)cc1)c1cc(-c2ccc(F)cc2)c2sc(=O)[nH]c2n1  BT-549 breast           active
33    Clc1cccc(Cl)c1Cn1c(-c2cncs2)nc2ccccc21  BT-549 breast         inactive
34  O=C(CCCn1c2c(sc3ccccc32)c(=O)n2nnc(-c3ccccc3)c12)NCCc1cnc[nH]1  BT-549 breast         inactive
35  CCn1cc(C(=O)O)c(=O)c2cc(F)c(N3CCN(S(=O)(=O)c4cccc5ccccc45)CC3)cc21  BT-549 breast           active
36  COc1ccc(C(=O)/C=C/c2cccc([N+](=O)[O-])c2)c(OC)c1  BT-549 breast           active
37  CC(Br)C(O)c1cc2c(cc1Br)OCO2 (stereo unspecified)  BT-549 breast         inactive
38           c1cc(-c2ccc3c(c2)OCO3)n2nccc2n1  BT-549 breast         inactive
39  CCOC(=O)C(Cc1ccccc1)n1c(O)c(C=Nc2ccc(C(=O)OCCN(CC)CC)cc2)sc1=O (stereo unspecified)  BT-549 breast         inactive
40  COc1ccc(-c2nc(-c3nc4ccc(F)cc4[nH]3)cc3c2[nH]c2ccccc23)cc1  BT-549 breast         inactive
41  O=C(Cc1n[nH]c(=O)c2ccccc12)OCc1c(Cl)cccc1Cl  BT-549 breast         inactive
